Values from PubChem BioAssay (NCATS)

Test: Quantitative highthroughput screen to assess conditional lethalithy of NOMO1 cells grown in RPMI1640 with dialyzed fetal bovine serum (RPMI+ds) (AID 1963877); note: nearly all actives have a fitted effect of over 30% in size;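 for viability: 100% = DMSO control wells and 0% = empty wells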
Settings: NOMO1 in RPMI+dialyzed FBS viability, ATP luminescence, 48 h; series mostly up to 45.8 µM
Records with an inconclusive call do not appear. Calls of active or inactive are those of the source. Calls come from the whole dose curve; as a rule, active = well fitted cell-killing curve with a large enough effect; inconclusive = small, poorly fitted or top-dose-only effect; inactive = flat fitted curve, though single readings scatter.
A correct response names exactly one class from active, inactive

What is the recorded call for this compound in the test? CC(=O)OC1C(C)OC(Oc2c(-c3ccc(O)cc3)oc3cc(O)cc(O)c3c2=O)C(O)C1OC(C)=O (stereo not drawn)
inactive

Dear colleague, could you share the recorded outcome for "CN1C(=O)c2sccc2N(C)c2nc(Nc3ccc(S(N)(=O)=O)cc3)ncc21" when you have a moment?
active

Called result for NC(=O)C1CCCc2c1[nH]c1ccc(Cl)cc21 (stereo not drawn)
active

Call for entry "COc1ccc(-n2c(C)c([N+](=O)[O-])c3ccc(O)cc32)cc1" :
inactive

I would be grateful if you could indicate the recorded call for "CC(C)Oc1ccc2c(=O)c(-c3ccccc3)coc2c1" .
inactive

====

Assay: Viability qHTS for spleen associated tyrosine kinase inhibitor (SYKi) naive MV4-11 cells (AID 1963823); note: nearly all actives have a fitted effect of over 40% in size
Settings: MV4-11 AML viability, CellTiter-Glo luminescence, 72 h; series mostly up to 45 µM
Protocol: Department of Medicine, Hematology/Oncology University Hospital Frankfurt, Germany. Trials have shown promising clinical activity of the selective SYK inhibitor entospletinib in patients with high expressing HOXA9/MEIS1 acute leukemias. […] 7; Detection; Luminescence; ViewLux plate reader (PerkinElmer). […] 1. Quantitative high-throughput screening (qHTS) of small molecule compounds was conducted on naive SYKi MV4-11 cell line. […] 7. Luminescence was measured on a ViewLux plate reader (PerkinElmer).
Records with an inconclusive call do not appear. Calls of active or inactive are those of the source. Calls follow the shape of the dose curve; as a rule, active = well fitted cell-killing curve with a large enough effect; inconclusive = small, poorly fitted or top-dose-only effect, or effect the other way; inactive = no such curve, though single readings can be large or run the other way.
Pick one and only one: Y for active, N for inactive

compound	answer_label
C=CCc1ccc(O[C@@H]2O[C@H](CO[C@@H]3O[C@@H](C)[C@H](O)[C@@H](O)[C@H]3O)[C@@H](O)[C@H](O)[C@H]2O)cc1	N

What did this assay record as the result for "Cc1cn([C@H]2C[C@H](N=[N+]=[N-])[C@@H](CO)O2)c(=O)[nH]c1=O" ?
N

Write down the call the test reported for this compound. Item: CC(C)(O)C1CCC(C)(C2CCC3(C)C4CCC5C(C)(C(=O)OC6OC(CO)C(O)C(O)C6O)C(O)CC(O)C56CC46CCC23C)O1 (configuration not stated)
N

Look up the recorded call for NC(Cc1c[nH]c2ccccc12)C(=O)NC(CCC(=O)O)C(=O)O (configuration not stated) in this test.
Y

Check the results log: what was the call for "COC(=O)c1ccccc1C(=O)c1ccc(OCCN2CCCCC2)cc1" ?
N

Dear colleague, could you share the recorded outcome for "CCn1c(=O)c(-c2ccc(-c3cncs3)cc2Cl)cc2cnc(Nc3ccc(N4CCN(C)CC4)cc3)nc21" when you have a moment?
Y

Please state the recorded outcome for this compound: "COc1cc([C@@H]2c3cc4c(cc3[C@@H](O[C@@H]3O[C@@H]5CO[C@@H](C)O[C@@H]5[C@H](O)[C@@H]3O)[C@H]3COC(=O)[C@H]23)OCO4)cc(OC)c1O"
Y

====

Assay: Viability qHTS for spleen associated tyrosine kinase inhibitor (SYKi) drug resistant MV4-11 cells (AID 1963824); note: nearly all actives have a fitted effect of over 35% in size
Conditions: SYKi-resistant MV4-11 viability, CellTiter-Glo, 72 h; series mostly up to 45 µM
Records with an inconclusive call do not appear. Activity calls are given as the source filed them. Calls come from the whole dose curve; as a rule, active = well fitted cell-killing curve with a large enough effect; inconclusive = small, poorly fitted or top-dose-only effect, or effect the other way; inactive = no such curve, though single readings can be large or run the other way.
Tick one outcome: yes (1) = active, no (0) = inactive

molecule	answer_label
CCOC(=O)C1=C(C)NC(C)=C(C(=O)OCC)C1c1ccccc1/C=C/C(=O)OC(C)(C)C	yes (1)

Record lookup: outcome of this test for "c1ccc2c(Cc3c[nH]c4ccccc34)c[nH]c2c1" ?
yes (1)

// outcome(item) with item = CC(CCC1(O)OC2CC3C4CC=C5CC(O[C@@H]6O[C@H](CO)[C@@H](O[C@@H]7O[C@@H](C)[C@H](O)[C@@H](O)[C@H]7O)[C@H](O)[C@H]6O[C@@H]6O[C@@H](C)[C@H](O)[C@@H](O)[C@H]6O)CCC5(C)C4CCC3(C)C2C1C)CO[C@@H]1O[C@H](CO)[C@@H](O)[C@H](O)[C@H]1O (stereo partly specified)
yes (1)

Please share the test call associated with "CC(=O)OCC(=O)Nc1cc(C#N)cc(NC(=O)COC(C)=O)c1Cl" .
no (0)

Please indicate how the test categorized "CCCc1c(C(C)C)nc(C(C)C)c([C@@H](C)O)c1-c1ccc(F)cc1O" .
yes (1)

Test call, this molecule: CNCCC(c1cccs1)c1ccc(O)c2ccccc12 (stereo unspecified)
yes (1)

====

Assay: Viability qHTS for spleen associated tyrosine kinase inhibitor (SYKi) drug resistant MV4-11 cells (AID 1963824); note: nearly all actives have a fitted effect of over 35% in size
Details: SYKi-resistant MV4-11 viability, CellTiter-Glo, 72 h; series mostly up to 45 µM
Method: Department of Medicine, Hematology/Oncology University Hospital Frankfurt, Germany. Trials have shown promising clinical activity of the selective SYK inhibitor entospletinib in patients with high expressing HOXA9/MEIS1 acute leukemias. […] 7; Detection; Luminescence; ViewLux plate reader (PerkinElmer). […] 1. Quantitative high-throughput screening (qHTS) of small molecule compounds was conducted on drug resistant SYKi MV4-11 cell line. […] 7. Luminescence was measured on a ViewLux plate reader (PerkinElmer).
Records with an inconclusive call do not appear. Activity calls are given as the source filed them. Calls come from the whole dose curve; as a rule, active = well fitted cell-killing curve with a large enough effect; inconclusive = small, poorly fitted or top-dose-only effect, or effect the other way; inactive = no such curve, though single readings can be large or run the other way.
Permitted responses: active, inactive

Worked examples follow.
compound	answer_label
C=C(CCO)C(=O)OCC1OCC(OC(=O)C(=C)CCO[C@@H]2O[C@H](CO)[C@@H](O)[C@H](O)[C@H]2O)C(O)C1O (stereo partly specified)	inactive
Cc1nc(N)sc1-c1ccnc(Nc2ccc(N3CCOCC3)cc2)n1	active
CN(C)c1ccc(Nc2nc(N)n(C(=O)c3c(F)cccc3F)n2)cc1	active

Please find the next compound below.
Each compound tested received a call. Report the one for "COc1ncc(Nc2ncc([C@@H](C)N3CCN(S(C)(=O)=O)CC3)cc2-c2nc(C)nc(N)n2)cc1F" .
inactive

====

Test: Quantitative highthroughput screen to assess conditional lethalithy of P12 Ichikawa cells grown in RPMI1640 with untreated serum (RPMI+s) (AID 1963881); note: nearly all actives have a fitted effect of over 35% in size;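 for viability: 100% = DMSO wells and 0% = empty wells without cells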
Settings: ATP luminescence, 48 h; viability; series mostly up to 45.8 µM
Protocol: Assay Provider: Jason Cantor Ph.D. Department of Biochemistry University of Wisconsin-Madison, Madison, WI, USA Chemical screening studies have identified drug sensitivities across hundreds of cancer cell lines but most putative therapeutics fail to translate. […] Sets of conditional anticancer compounds spanned phases of clinical development and included non-oncology drugs were assessed. […] 6; Detection; Luminescence, Viewlux PerkinElmer. […]
Results filed as inconclusive are left out. Activity calls are given as the source filed them. The call rests on the fitted dose curve; in most records, active means well fitted cell-killing curve with a large enough effect; inconclusive means small, poorly fitted or top-dose-only effect; inactive means flat fitted curve, though single readings scatter.
Answer with one of the outcomes active, inactive

Use these answered entries as a reference point.
CC(C)c1nc(CN(C)C(=O)N[C@H](C(=O)N[C@@H](Cc2ccccc2)C[C@H](O)[C@H](Cc2ccccc2)NC(=O)OCc2cncs2)C(C)C)cs1 inactive
CN(c1nccc(=O)[nH]1)C1CCN(c2nc3ccccc3n2Cc2ccc(F)cc2)CC1 inactive

Moving on to another compound below.
Can you look up the reported call for "c1ccc2c(CCNc3ccc(Nc4ccncc4)cc3)c[nH]c2c1" for me?
active

====

Experiment: Quantitative highthroughput screen to assess conditional lethalithy of P12 Ichikawa cells grown in RPMI1640 with untreated serum (RPMI+s) (AID 1963881); note: nearly all actives have a fitted effect of over 35% in size;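 for viability: 100% = DMSO wells and 0% = empty wells without cells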
Conditions: ATP luminescence, 48 h; viability; series mostly up to 45.8 µM
Inconclusive results are not listed. Calls of active or inactive are those of the source. The call rests on the fitted dose curve; in most records, active means well fitted cell-killing curve with a large enough effect; inconclusive means small, poorly fitted or top-dose-only effect; inactive means flat fitted curve, though single readings scatter.
Log the outcome using a class from active, inactive

compound	answer_label
CN(CC=CC#CC(C)(C)C)Cc1cccc2ccccc12	inactive
Cc1nc(C(=O)NCC(=O)O)c(O)c2ccc(Oc3ccccc3)cc12	inactive
C[C@H](CCC(=O)O)[C@H]1CC[C@H]2[C@H]3[C@@H](CC[C@]12C)[C@@]1(C)CC[C@@H](O)C[C@H]1C[C@@H]3O	inactive
CN1C(C(=O)Nc2ccccn2)=C(O)c2sc(Cl)cc2S1(=O)=O	inactive
CN1CCc2c(c3ccccc3n2Cc2ccc(C(=O)NO)cc2)C1	active

Assay result, entry "Cc1nc(NC(=O)N2CCC[C@@H]2C(N)=O)sc1-c1csc(C(C)(C)C)n1" — outcome?
active

What did the test return for "CC[C@H](NC(=O)[C@H](C)NC)C(=O)N1C[C@@H](O)C[C@H]1Cc1c(-c2[nH]c3cc(F)ccc3c2C[C@H]2C[C@H](O)CN2C(=O)[C@H](CC)NC(=O)[C@H](C)NC)[nH]c2cc(F)ccc12" ?
active

Recorded test call requested for "Cc1ccc(-c2ncn(-c3ccc(Nc4nccc(-c5cccc(N6CCOCC6)c5)n4)cc3)n2)cn1"
active

Outcome logged for "COc1ccc2cc([S+]([O-])Cc3ncc(C)c(OC)c3C)nc2c1" in this assay:
inactive

# lookup: test call for CN1CC(=O)N2C(Cc3c([nH]c4ccccc34)[C@H]2c2ccc3c(c2)OCO3)C1=O (some centres undefined)
inactive
